experimental.details: Cerebral and plasma pharmacokinetic profile after oral administration in mice
Assay type: in vivo, male C57Bl6 mouse
condition.summary: male, C57Bl6, mouse, brain/plasma; oral administration 10 mg/kg in mice; read-out: Ratio AUCbrain/AUCplasma
measure.name: Kp

Request: Consider the compound `CC(C)(C)c1cccc(S(=O)(=O)n2c(CCCC(=O)O)cc3cc(C(F)(F)F)ccc32)c1` and give its measured Kp.
Response: 0.87

Request: Now the same for `CC(C)c1cccc(S(=O)(=O)n2c(CCCC(=O)O)cc3cc(C(F)(F)F)ccc32)c1`
Response: 0.67

Request: Now the same for `CC(C)(C)c1cccc(S(=O)(=O)n2c(CCCCC(=O)O)cc3cc(C(F)(F)F)ccc32)c1`
Response: 0.8
